assayedSystem: Coagulation factor VII/tissue factor (Homo sapiens, UniProt P08709)
Sequence (P08709 61-212 limits assumed): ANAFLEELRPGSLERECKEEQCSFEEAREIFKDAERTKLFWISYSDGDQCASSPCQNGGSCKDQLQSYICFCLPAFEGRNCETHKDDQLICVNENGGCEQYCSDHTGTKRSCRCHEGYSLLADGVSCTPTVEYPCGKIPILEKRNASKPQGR
Sequence (P08709 213-466 limits assumed): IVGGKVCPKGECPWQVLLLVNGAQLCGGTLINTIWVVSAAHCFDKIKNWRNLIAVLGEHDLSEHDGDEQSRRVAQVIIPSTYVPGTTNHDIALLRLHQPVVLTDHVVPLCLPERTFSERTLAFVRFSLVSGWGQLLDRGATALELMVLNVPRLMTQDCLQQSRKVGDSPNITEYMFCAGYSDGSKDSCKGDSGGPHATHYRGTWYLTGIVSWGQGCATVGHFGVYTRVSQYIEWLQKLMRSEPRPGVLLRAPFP
Sequence (P13726 33-295 partner limits assumed): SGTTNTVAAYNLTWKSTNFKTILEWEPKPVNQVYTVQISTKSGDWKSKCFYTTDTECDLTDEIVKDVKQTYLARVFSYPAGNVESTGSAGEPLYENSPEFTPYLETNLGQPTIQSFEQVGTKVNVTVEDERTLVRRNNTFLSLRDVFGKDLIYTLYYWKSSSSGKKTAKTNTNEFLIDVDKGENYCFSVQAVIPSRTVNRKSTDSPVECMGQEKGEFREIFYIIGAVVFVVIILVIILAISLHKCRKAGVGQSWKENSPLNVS
assayComment: Inhibition of human tissue factor/factor 7a
pIC50: −log10 of the molar value.
observable: pIC50

cpdSmiles: Cc1nc(N)ccc1CNC(=O)CN1C(=O)[C@H](NS(=O)(=O)Cc2ccccc2)CSc2ccccc21
result: < 4.48

cpdSmiles: N=C(N)c1ccc(CNC(=O)CN2C(=O)[C@H](NC(=O)C(c3ccccc3)c3ccccc3)CSc3ccccc32)cc1
result: < 4.48

cpdSmiles: N=C(N)c1ccc(CNC(=O)CN2C(=O)[C@H](NS(=O)(=O)Cc3ccccc3)CSc3cc(C(=O)O)ccc32)cc1
result: < 4.48
